Value source: patent US20110105397A1

Assay Notes: Human pharmacokinetics, healthy subjects, 7.5-hour continuous ascending dose IV infusion
Type: in vivo
Stated Conditions: human, in vivo, healthy subjects, infusion rate 18/36/72 ng/kg/min, mean, N = 2
Experimental Readout: Cmax (ng/mL)

{"Substance": "H-TKFTLSLDVPTNIMNLLFNIAKAKNLRAQAAANAHLMAQI-NH2 [SEQ ID NO: 1]", "Observed": 14.1}

====

Assay Notes: Nonclinical pharmacokinetics in cynomolgus monkeys
Stated Conditions: female, cynomolgus monkey, in vivo; cyno IV infusion 3 hours, F, 33.3 ng/kg/min

{"Substance": "H-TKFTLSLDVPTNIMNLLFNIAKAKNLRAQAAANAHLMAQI-NH2 [SEQ ID NO: 1]", "Unit Label": "ng·h/mL", "AUC(0-inf)": 2.34}
